Values from patent US20240360082A1

systemName: influenza A virus minigenome (PB2, PB1, PA, NP proteins) (UniProt P04665)
Sequence (P04665 whole entry): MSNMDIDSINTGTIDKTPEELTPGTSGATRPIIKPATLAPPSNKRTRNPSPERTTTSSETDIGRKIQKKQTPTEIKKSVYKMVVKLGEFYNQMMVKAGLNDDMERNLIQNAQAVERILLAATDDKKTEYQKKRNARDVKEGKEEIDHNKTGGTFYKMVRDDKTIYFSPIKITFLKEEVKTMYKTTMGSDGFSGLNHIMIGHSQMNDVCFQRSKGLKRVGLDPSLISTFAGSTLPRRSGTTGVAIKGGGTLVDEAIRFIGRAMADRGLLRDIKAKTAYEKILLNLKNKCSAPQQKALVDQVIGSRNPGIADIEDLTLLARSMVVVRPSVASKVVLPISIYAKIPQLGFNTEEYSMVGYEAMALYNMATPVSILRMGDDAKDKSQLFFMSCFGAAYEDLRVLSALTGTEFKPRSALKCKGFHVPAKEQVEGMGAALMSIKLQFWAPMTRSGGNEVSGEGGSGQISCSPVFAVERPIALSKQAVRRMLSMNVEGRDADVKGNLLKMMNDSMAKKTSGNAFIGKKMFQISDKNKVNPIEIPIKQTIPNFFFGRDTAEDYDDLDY
Type: cell-based
testContext: read-out: RNP_ Hubei B IC50
pIC50: −log10 of the molar value.
In this section, each of the molecules is paired with its reported pIC50.

Below, 3 molecules whose answers are already recorded.
> print(dat)
                                   molecule                                systemname  quantitykind     datavalue
1  NC(=O)c1cc(-c2ccc(OCC3(F)COC3)cc2)c(C(F)(F)F)[nH]c1=O [Example 226]  influenza A virus minigenome (PB2, PB1, PA, NP proteins) (UniProt P04665)         pIC50  4.30 to 4.60
2  NC(=O)c1cc(-c2ccc(OCC3COCC(COC(F)(F)F)O3)cc2)c(C(F)(F)F)[nH]c1=O (single isomer, unassigned) [Example 372]  influenza A virus minigenome (PB2, PB1, PA, NP proteins) (UniProt P04665)         pIC50  5.30 to 6.00
3  NC(=O)c1cc(-c2ccc(OC[C@H]3COC[C@H](C4CC4)O3)cc2)c(C(F)(F)F)[nH]c1=O [Example 327]  influenza A virus minigenome (PB2, PB1, PA, NP proteins) (UniProt P04665)         pIC50  5.00 to 5.30

Read the next record carefully.
I have this molecule here, NC(=O)c1cc(-c2ccc(OCC3COCC(C4CCCC4)O3)cc2)c(C(F)(F)F)[nH]c1=O (racemic) [Example 333] , and I need its recorded pIC50.
5.30 to 6.00

* * *

In this section, each of the molecules is paired with its reported IC50.
systemName: influenza A virus minigenome (PB2, PB1, PA, NP proteins)
Type: cell-based
testContext: read-out: RNP_ Hubei B IC50

Below, 5 molecules whose answers are already recorded.
> print(dat)
                                   molecule    datavalue
1  CCOCC1COCC(COc2ccc(-c3cc(C(N)=O)c(=O)[nH]c3C(F)(F)F)cc2)O1 (single isomer, unassigned)   5 to 10 µM
2  C[C@]1(CS(=O)(=O)C2CC2)COC[C@@H](COc2ccc(-c3cc(C(N)=O)c(=O)[nH]c3C(F)(F)F)cc2)O1   5 to 10 µM
3  [2H]C([2H])([2H])OC[C@@]1(C)COC[C@@H](COc2ccc(-c3cc(C(N)=O)c(=O)[nH]c3C(F)(F)F)cc2)O1   5 to 10 µM
4  NC(=O)c1cc(-c2ccc(OCC3C[C@@H]4CC[C@H]3O4)cc2)c(C(F)(F)F)[nH]c1=O (single isomer, unassigned) [Example 315]  10 to 25 µM
5  CC1(C2COCC(COc3ccc(-c4cc(C(N)=O)c(=O)[nH]c4C(F)(F)F)cc3)O2)CC1 (single isomer, unassigned)   5 to 10 µM

I have this molecule here, COCC1(COC)COC[C@@H](COc2ccc(-c3cc(C(N)=O)c(=O)[nH]c3C(F)(F)F)cc2)O1 , and I need its recorded IC50.
5 to 10 µM

* * *

systemName: influenza A virus minigenome (PB2, PB1, PA, NP proteins) (UniProt P04665)
Type: cell-based
testContext: read-out: RNP_ Hubei B IC50
pIC50: −log10 of the molar value.
In this section, each of the compounds is paired with its reported pIC50.

Below, 10 compounds whose answers are already recorded.
> print(dat)
                                    compound  quantitykind     datavalue
 1  NC(=O)c1cc(-c2ccc(OCC3COCCOC3)cc2)c(C(F)(F)F)[nH]c1=O [Example 320]         pIC50  5.00 to 5.30
 2  NC(=O)c1cc(-c2ccc(OCC3COCCO3)cc2)c(C(F)(F)F)[nH]c1=O (single isomer, unassigned) [Example 237]         pIC50  4.30 to 4.60
 3  C[C@]12O[C@H](COc3ccc(-c4cc(C(N)=O)c(=O)[nH]c4C(F)(F)F)cc3)CO[C@H]1C2(F)F [Example 394]         pIC50  5.00 to 5.30
 4  COC[C@]1(C)COC[C@H](COc2ccc(-c3cc(C(N)=O)c(=O)[nH]c3C(F)(F)F)cc2)O1 [Example 407]         pIC50  5.00 to 5.30
 5  COCC1OC(COc2ccc(-c3cc(C(N)=O)c(=O)[nH]c3C(F)(F)F)cc2)COC1C (single isomer, unassigned) [Example 392]         pIC50  5.00 to 5.30
 6  COC[C@@]1(C)COC[C@H](COc2ccc(-c3cc(C(N)=O)c(=O)[nH]c3C(F)(F)F)cc2)O1 [Example 408]         pIC50  5.00 to 5.30
 7  NC(=O)c1cc(-c2ccc(OCC3CCCCO3)cc2)c(C(F)(F)F)[nH]c1=O (stereo not shown) [Example 236]         pIC50  5.00 to 5.30
 8  NC(=O)c1cc(-c2ccc(OCC3CCOC3)cc2)c(C(F)(F)F)[nH]c1=O (stereo not shown) [Example 231]         pIC50  4.30 to 4.60
 9  CC(C)(O)C1COCC(COc2ccc(-c3cc(C(N)=O)c(=O)[nH]c3C(F)(F)F)cc2)O1 (single isomer, unassigned) [Example 354]         pIC50  5.00 to 5.30
10  C[C@]1(COCC(F)(F)F)COC[C@@H](COc2ccc(-c3cc(C(N)=O)c(=O)[nH]c3C(F)(F)F)cc2)O1 [Example 432]         pIC50  5.00 to 5.30

I have this compound here, C[C@]1(CC#N)COC[C@@H](COc2ccc(-c3cc(C(N)=O)c(=O)[nH]c3C(F)(F)F)cc2)O1 [Example 411] , and I need its recorded pIC50.
5.00 to 5.30

Entry to check: CN(C)C(=O)[C@@]1(C)COC[C@@H](COc2ccc(-c3cc(C(N)=O)c(=O)[nH]c3C(F)(F)F)cc2)O1 [Example 409]
5.00 to 5.30

Entry to check: COCCn1nccc1COc1ccc(-c2cc(C(N)=O)c(=O)[nH]c2C(F)(F)F)cc1 [Example 219]
4.30 to 4.60

* * *

systemName: influenza A virus minigenome (PB2, PB1, PA, NP proteins)
Type: cell-based
testContext: read-out: RNP_Hubei B
pIC50: −log10 of the molar value.
quantityKind: pIC50

Below, 3 compounds whose answers are already recorded.
> print(dat)
                                   compound                                systemname     datavalue
1  COc1ccc(-c2cc(C(N)=O)c(=O)[nH]c2C(F)(F)F)cc1Cl  influenza A virus minigenome (PB2, PB1, PA, NP proteins)  4.60 to 5.00
2  NC(=O)c1cc(-c2ccc(O)cc2)c(C(F)(F)F)[nH]c1=O  influenza A virus minigenome (PB2, PB1, PA, NP proteins)  4.30 to 4.60
3  NC(=O)c1cc(-c2ccc(OCc3ccn4nnnc4c3)cc2)c(C(F)(F)F)[nH]c1=O  influenza A virus minigenome (PB2, PB1, PA, NP proteins)  4.30 to 4.60

I have this compound here, NC(=O)c1cc(-c2ccc(OCc3cccc(C(F)(F)F)c3)cc2)c(C(F)(F)F)[nH]c1=O , and I need its recorded pIC50.
5.00 to 5.30

Entry to check: NC(=O)c1cc(-c2ccc(OCc3ccccc3[N+](=O)[O-])cc2)c(C(F)(F)F)[nH]c1=O
4.60 to 5.00

Entry to check: NC(=O)c1cc(-c2ccc(CN3CCOCC3=O)cc2)c(C(F)(F)F)[nH]c1=O
4.30 to 4.60

Entry to check: NC(=O)c1cc(-c2ccc(CO)cc2)c(C(F)(F)F)[nH]c1=O
4.30 to 4.60

Entry to check: NC(=O)c1cc(-c2ccc(OCc3cnc(NCC4CC4)nc3)cc2)c(C(F)(F)F)[nH]c1=O
4.60 to 5.00

* * *

systemName: influenza A virus minigenome (PB2, PB1, PA, NP proteins)
Assay type: cell-based
testContext: read-out: RNP_ Hubei B IC50
In this section, each of the compounds is paired with its reported IC50.

Below, 5 compounds whose answers are already recorded.
> print(dat)
                                   compound  quantitykind    datavalue
1  CC1(OCC2COCC(COc3ccc(-c4cc(C(N)=O)c(=O)[nH]c4C(F)(F)F)cc3)O2)COC1 (single isomer, unassigned) [Example 379]          IC50   5 to 10 µM
2  NC(=O)c1cc(-c2ccc(OC[C@H]3COC[C@@H](C4CC4)O3)cc2)c(C(F)(F)F)[nH]c1=O          IC50  10 to 25 µM
3  NC(=O)c1cc(-c2ccc(OCC3COCC(COC(F)(F)F)O3)cc2)c(C(F)(F)F)[nH]c1=O (single isomer, unassigned) [Example 373]          IC50   5 to 10 µM
4  C[C@@H]1COC[C@H](COc2ccc(-c3cc(C(N)=O)c(=O)[nH]c3C(F)(F)F)cc2)O1          IC50  10 to 25 µM
5  NC(=O)c1cc(-c2ccc(OCC3COCC(F)(F)C3)cc2)c(C(F)(F)F)[nH]c1=O (single isomer, unassigned) [Example 337]          IC50   5 to 10 µM

Query for influenza A virus minigenome (PB2, PB1, PA, NP proteins): what IC50 does the record show for NC(=O)c1cc(-c2ccc(OCc3cnc4ccccn34)cc2)c(C(F)(F)F)[nH]c1=O ?
25 to 50 µM

Entry to check: NC(=O)c1cc(-c2ccc(OCC3COCC(F)(F)C3)cc2)c(C(F)(F)F)[nH]c1=O (single isomer, unassigned) [Example 336]
5 to 10 µM

Entry to check: NC(=O)c1cc(-c2ccc(OCC3COCC(C(F)F)O3)cc2)c(C(F)(F)F)[nH]c1=O (single isomer, unassigned)
5 to 10 µM

Entry to check: Cc1nnsc1COc1ccc(-c2cc(C(N)=O)c(=O)[nH]c2C(F)(F)F)cc1
10 to 25 µM

Entry to check: NC(=O)c1cc(-c2ccc(OCCN3CCOC3=O)cc2)c(C(F)(F)F)[nH]c1=O
25 to 50 µM

Entry to check: C[C@@]1(CN2CC(F)(F)C2)COC[C@@H](COc2ccc(-c3cc(C(N)=O)c(=O)[nH]c3C(F)(F)F)cc2)O1
5 to 10 µM

Entry to check: NC(=O)c1cc(-c2ccc(OCC3COC(C(F)F)CO3)cc2)c(C(F)(F)F)[nH]c1=O (single isomer, unassigned) [Example 346]
5 to 10 µM

Entry to check: NC(=O)c1cc(-c2ccc(OCC3COCC(COCC4CC4)O3)cc2)c(C(F)(F)F)[nH]c1=O (single isomer, unassigned) [Example 363]
5 to 10 µM
